Test: Toxicity liver stage against HepG2, at 10uM
Assay type: cell-based
Parameters: test concentration 10 uM, cell line HepG2-A16-CD81EGFP
Conditions: human, HepG2-A16-CD81EGFP cells; read-out: INHIBITION
Reported cytotoxicity at 10 µM by item:

[
  {
    "compound": "CCOc1c(Cl)cc(/C=C/c2ncc(C(=O)O)s2)cc1OC",
    "cytotoxicity at 10 µM [%]": 3.91
  },
  {
    "compound": "CCCc1nc(N(C)CCN2CCCCCC2)c2cnn(C)c2n1",
    "cytotoxicity at 10 µM [%]": 3.22
  },
  {
    "compound": "Cn1cc(N2C[C@@H]3CN(Cc4ccoc4)C[C@@H]3C2=O)cn1",
    "cytotoxicity at 10 µM [%]": -2.93
  },
  {
    "compound": "OC1CCN(Cc2ccc(CNc3ncc(Cl)cc3F)cc2)CC1",
    "cytotoxicity at 10 µM [%]": 9.96
  },
  {
    "compound": "CC(=O)N1CCC(c2cncc(Cl)n2)CC1",
    "cytotoxicity at 10 µM [%]": 3.8
  },
  {
    "compound": "Cc1noc(C)c1CN1CCOC2(CCCN(c3ccccn3)C2)C1 (stereo not drawn)",
    "cytotoxicity at 10 µM [%]": 11.6
  },
  {
    "compound": "CC(Nc1nccc(CCC(F)(F)F)n1)c1nc(-c2ccccn2)no1 (stereo not drawn)",
    "cytotoxicity at 10 µM [%]": -6.43
  },
  {
    "compound": "CN(C)C(C(=O)N1CCC(C#N)CC1)c1ccccc1F (stereo not drawn)",
    "cytotoxicity at 10 µM [%]": -3.59
  },
  {
    "compound": "CC(C)N1CCO[C@H]2CN(C(=O)c3ccncc3F)C[C@H]21",
    "cytotoxicity at 10 µM [%]": -146
  },
  {
    "compound": "CCN1C(=O)CCCC12CCCN(C(=O)c1conc1C)C2 (stereo not drawn)",
    "cytotoxicity at 10 µM [%]": 4.57
  },
  {
    "compound": "Cc1noc(C)c1C(=O)N1C[C@H]2CCC[C@@]2(COc2ccccn2)C1",
    "cytotoxicity at 10 µM [%]": -5.53
  },
  {
    "compound": "CN1CCc2c(NC(=O)NCc3ccccc3Cl)cccc21",
    "cytotoxicity at 10 µM [%]": 3.65
  },
  {
    "compound": "Cc1cc(N)nc(C2(C)CCCN2C(=O)c2cnccn2)n1 (stereo not drawn)",
    "cytotoxicity at 10 µM [%]": -27.1
  },
  {
    "compound": "Cn1nc2c(c1NC(=O)c1ccc(C3CCCN3C3CCC3)s1)CCC2 (stereo not drawn)",
    "cytotoxicity at 10 µM [%]": -5.08
  },
  {
    "compound": "CCS(=O)(=O)N1CCc2ccc(NC(=O)Nc3cccc(C)c3)cc21",
    "cytotoxicity at 10 µM [%]": 42.3
  },
  {
    "compound": "CC(C)CCNC(=O)c1cccnc1Oc1cccnc1",
    "cytotoxicity at 10 µM [%]": -0.379
  },
  {
    "compound": "O=C(C1=CCCC1)N1CCC[C@]2(C[C@@H](OCc3ccncc3)CO2)C1",
    "cytotoxicity at 10 µM [%]": -6.5
  },
  {
    "compound": "Cc1nn(C)c(Cl)c1C1CCCN1C(=O)c1ccc2c(c1)COC2 (stereo not drawn)",
    "cytotoxicity at 10 µM [%]": -16.1
  },
  {
    "compound": "O=C(C1CC=CC1)N1CCC2(CCC(=O)N2Cc2cccc(F)c2)CC1",
    "cytotoxicity at 10 µM [%]": -3.2
  },
  {
    "compound": "CC(C)COCCC(=O)Nc1cc(-n2nnnc2C2CC2)ccc1F",
    "cytotoxicity at 10 µM [%]": 7.57
  },
  {
    "compound": "COc1ccccc1OCCC(=O)N1CCCC1Cn1cc(C)cn1 (stereo not drawn)",
    "cytotoxicity at 10 µM [%]": 6.02
  },
  {
    "compound": "CC(NC(=O)N1CCC[C@H]1CO)c1noc(-c2ccccc2)n1 (stereo partly drawn)",
    "cytotoxicity at 10 µM [%]": -6.67
  },
  {
    "compound": "CN1CCN(C(=O)CCc2cc(Br)cs2)CC1",
    "cytotoxicity at 10 µM [%]": -5.35
  },
  {
    "compound": "CC(C)c1csc(C2CCCN(C(=O)c3ccc(=O)n(C)c3)C2)n1 (stereo not drawn)",
    "cytotoxicity at 10 µM [%]": -48.2
  },
  {
    "compound": "O=C(c1cnccn1)N1CCCC(Cc2ccccn2)C1 (stereo not drawn)",
    "cytotoxicity at 10 µM [%]": 6.95
  },
  {
    "compound": "Cc1cccc(OCC(O)CN2CCC(Cn3cccn3)CC2)c1 (stereo not drawn)",
    "cytotoxicity at 10 µM [%]": -1.43
  },
  {
    "compound": "CN(C)c1ncccc1CNS(=O)(=O)c1ccc(C(N)=O)cc1",
    "cytotoxicity at 10 µM [%]": -4.08
  },
  {
    "compound": "CNc1nc(N2CCN(CC=C(C)C)C(CCO)C2)nc2c1CCC2 (stereo not drawn)",
    "cytotoxicity at 10 µM [%]": -0.6
  },
  {
    "compound": "Cc1cc2c(o1)CC(C)(C)CC2NC(=O)CNC(=O)C1CC1 (stereo not drawn)",
    "cytotoxicity at 10 µM [%]": 4.57
  },
  {
    "compound": "CCn1nc(C)c2nn(CC(=O)NC3CCSCC3)cc21",
    "cytotoxicity at 10 µM [%]": -3.57
  },
  {
    "compound": "COCC(=O)N1CCCC1c1ccnc(Nc2cnccn2)n1 (stereo not drawn)",
    "cytotoxicity at 10 µM [%]": -4.3
  },
  {
    "compound": "OCC(CO)Nc1cccc(C(F)(F)F)n1",
    "cytotoxicity at 10 µM [%]": 0.409
  },
  {
    "compound": "c1cnc(-c2nc(CN3CCCC(N4CCCC4)C3)cs2)nc1 (stereo not drawn)",
    "cytotoxicity at 10 µM [%]": -12
  },
  {
    "compound": "CN(C)c1cccc(C(=O)Nc2cnn(CC(N)=O)c2)c1",
    "cytotoxicity at 10 µM [%]": 3.63
  },
  {
    "compound": "Cc1oncc1C(=O)NCC(c1ccccc1Cl)N1CCOCC1 (stereo not drawn)",
    "cytotoxicity at 10 µM [%]": 10.7
  },
  {
    "compound": "COC[C@H]1CCC[C@]12CN(Cc1cccc(C)n1)CCO2",
    "cytotoxicity at 10 µM [%]": 2.23
  },
  {
    "compound": "Cn1ccc(C(=O)NCc2ccc(Cn3ccnc3)cc2)cc1=O",
    "cytotoxicity at 10 µM [%]": 3.32
  },
  {
    "compound": "CCC(=O)N1CCN(C(=O)NCCOc2ccc3c(c2)CCC3)CC1",
    "cytotoxicity at 10 µM [%]": -7.57
  },
  {
    "compound": "Cn1c(C(=O)NC2CCCC2)nc2c1CCN(Cc1ccccc1)C2",
    "cytotoxicity at 10 µM [%]": 10.3
  },
  {
    "compound": "CS(=O)(=O)NC1CCCN(C(=O)NCc2ccoc2)C1 (stereo not drawn)",
    "cytotoxicity at 10 µM [%]": -14.9
  },
  {
    "compound": "OCCNC1CCc2cc3c(cc21)OCCO3 (stereo not drawn)",
    "cytotoxicity at 10 µM [%]": -5.82
  },
  {
    "compound": "CCCc1nc(Cn2c(=O)n(C)c3ccccc32)no1",
    "cytotoxicity at 10 µM [%]": -43
  },
  {
    "compound": "Cc1ccc(C(=O)N2CCC(c3nccn3Cc3ccncc3)CC2)s1",
    "cytotoxicity at 10 µM [%]": 1.2
  },
  {
    "compound": "CC1(Cc2ccc3c(c2)OCO3)CCCN(S(=O)(=O)N2CCOCC2)C1 (stereo not drawn)",
    "cytotoxicity at 10 µM [%]": -5.39
  },
  {
    "compound": "COCCn1c2c(ccc1=O)CCN(Cc1ccoc1)CC2",
    "cytotoxicity at 10 µM [%]": -134
  },
  {
    "compound": "CCn1ncnc1C1CC(=O)NCc2nc3ccccn3c21 (stereo not drawn)",
    "cytotoxicity at 10 µM [%]": -12.2
  },
  {
    "compound": "CCCN1C[C@@H]2CC[C@H]1CN(Cc1cccc(-n3cccn3)c1)C2",
    "cytotoxicity at 10 µM [%]": -1.69
  },
  {
    "compound": "Cc1nc(COC[C@H]2CCC[C@]23CN(CC2CC2)CCO3)cs1",
    "cytotoxicity at 10 µM [%]": -76.9
  }
]
